experimental-system: Ybr033w (UniProt P38073)
Sequence: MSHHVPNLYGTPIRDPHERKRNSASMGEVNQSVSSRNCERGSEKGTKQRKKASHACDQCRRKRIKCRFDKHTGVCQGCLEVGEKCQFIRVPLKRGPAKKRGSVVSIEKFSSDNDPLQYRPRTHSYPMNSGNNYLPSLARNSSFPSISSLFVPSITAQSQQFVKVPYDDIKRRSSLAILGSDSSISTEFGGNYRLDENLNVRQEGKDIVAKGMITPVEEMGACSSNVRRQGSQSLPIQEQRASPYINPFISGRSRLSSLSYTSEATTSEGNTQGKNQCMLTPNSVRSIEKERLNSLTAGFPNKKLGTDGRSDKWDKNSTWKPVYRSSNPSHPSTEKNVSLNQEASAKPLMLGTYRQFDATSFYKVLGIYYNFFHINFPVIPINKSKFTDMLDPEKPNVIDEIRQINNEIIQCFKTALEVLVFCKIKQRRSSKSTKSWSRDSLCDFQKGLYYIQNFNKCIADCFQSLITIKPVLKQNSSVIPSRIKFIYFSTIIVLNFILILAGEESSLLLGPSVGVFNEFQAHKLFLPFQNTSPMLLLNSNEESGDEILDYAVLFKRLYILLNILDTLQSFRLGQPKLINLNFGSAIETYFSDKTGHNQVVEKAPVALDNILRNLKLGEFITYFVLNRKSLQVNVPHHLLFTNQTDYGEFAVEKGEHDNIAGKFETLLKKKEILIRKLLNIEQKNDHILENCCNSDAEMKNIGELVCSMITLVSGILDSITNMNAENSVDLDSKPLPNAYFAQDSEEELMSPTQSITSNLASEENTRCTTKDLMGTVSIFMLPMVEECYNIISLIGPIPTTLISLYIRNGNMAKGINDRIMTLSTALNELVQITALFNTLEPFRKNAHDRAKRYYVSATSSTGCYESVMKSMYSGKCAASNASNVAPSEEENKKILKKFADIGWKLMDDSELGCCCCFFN
test: PBM E-score (8-mer binding enrichment) (E-score (-0.5 to 0.5)); higher = stronger / more preferred TF binding
experimental-parameters: protein concentration: 200 nM; construct: GST-full length
In all, about 33,000 sequences were measured (“E-score (-0.5 to 0.5)”: median about -0.012, highest 2% from about 0.29 on). The list comes from a sample in which the highest values are over-represented; it also holds close analogues and randomly drawn sequences.
Label true (1) when PBM E-score is at or above -0.02; anything below gets false (0).

Solved cases (6 shown):
- sequence-chain: "GAATTAAA"
  label: "true (1)"
- sequence-chain: "CTACTAAC"
  label: "true (1)"
- sequence-chain: "ACAACCAC"
  label: "true (1)"
- sequence-chain: "TAATATTA"
  label: "true (1)"
- sequence-chain: "GGAGAACA"
  label: "true (1)"
- sequence-chain: "ACACCTGA"
  label: "false (0)"

Now take the following sequence into account.
Does the reported PBM E-score for "CACCCCAG" fall at or above the -0.02 mark? true (1)
